A set of compounds tested on UniProtKB O94966, with measured IC50:

* O=C(NCc1ccc(F)c(F)c1)N1CC[C@@](O)(Cn2cnc(-c3ccccc3)cc2=O)C2(CCCC2)C1 | < 0.5 µM
* Cn1cc(-c2cc(=O)n(C[C@]3(O)CCN(C(=O)N4CCNC[C@H]4c4ccccc4)CC34CCCC4)cn2)cn1 | < 0.5 µM
* C[C@H](CC(F)(F)F)C(=O)N1CCC(O)(Cn2ccc3nc(N4CCNCC4)ncc3c2=O)C2(CCCC2)C1 (some centres unmarked) | 0.5 to 5 µM
* CN(CC1CC1)C(=O)N1CC[C@@](O)(Cn2cnc(-c3ccccc3)cc2=O)C2(CCCC2)C1 | 0.5 to 5 µM

Quick one: give measured IC50 for C[C@H](CC1CCCCC1)C(=O)N1CCC(O)(Cn2cc(N=S(C)(C)=O)c(Cl)cc2=O)C2(CCCC2)C1 (some centres unmarked)
0.5 to 5 µM

For the compound Cc1ccc(-c2cc(=O)n(C[C@]3(O)CCN(C(=O)N4CCNC[C@H]4c4ccccc4)CC34CCCC4)cn2)cc1 , report IC50.
< 0.5 µM

Quickly give me recorded IC50 for O=C(N1CCC(C(F)F)C1)N1CCC(O)(Cn2cnc(-c3ccccc3)cc2=O)C2(CCCC2)C1 (centres unmarked)
5 to 50 µM

----------
Target or system UniProt O94966: recorded IC50 listed per item.

The examples below pair each entry with its known result.
- C[C@H](CC1CCCCC1)C(=O)N1CCC(O)(Cn2cc(-n3cccn3)ncc2=O)C(C)(C)C1 (stereo partly shown): 0.5 to 5 µM
- O=C(N1CC[C@@](O)(Cn2cnc(-c3ccccc3C(F)(F)F)cc2=O)C2(CCCC2)C1)N1CCNC[C@H]1c1ccccc1: < 0.5 µM
- COc1ccc2c(=O)n(CC3(O)CCN(C(=O)[C@H](C)CC(F)(F)F)CC34CCCC4)cnc2c1 (stereo partly shown): 5 to 50 µM
- C[C@H](CC(F)(F)F)C(=O)N1CCC(O)(Cn2ccc3ccc(F)cc3c2=O)C2(CCCC2)C1 (stereo partly shown): 5 to 50 µM

Please supply the value of reported IC50 for the item C[C@H](CC(F)(F)F)C(=O)N1CCC(O)(Cn2cc(N=S(C)(C)=O)c(-c3ccccc3)cc2=O)C2(CCCC2)C1 (stereo partly shown)
< 0.5 µM

Give me measured IC50, please, for this compound: CSc1ncc2c(=O)n(C[C@]3(O)CCN(C(=O)N4CCNC[C@H]4c4ccccc4)CC34CCCC4)ccc2n1
< 0.5 µM

Read the entry O=C(N1CCC(O)(Cn2ccncc2=O)C2(CCCC2)C1)N1CCOC[C@H]1c1ccccc1 (stereo partly shown) and write its reported IC50.
0.5 to 5 µM

Specify IC50 for CS(=O)(=O)c1cn(CC2(O)CCN(C(=O)N3CCNC[C@H]3c3ccccc3)CC23CCCC3)c(=O)cc1-c1ccccc1 (stereo partly shown) and stop.
< 0.5 µM

For the compound CN(C)C(=O)c1cn(CC2(O)CCN(C(=O)Oc3ccc([N+](=O)[O-])cc3)CC23CCCC3)c(=O)cc1-c1ccccc1 (stereo not shown) , give its measured IC50 value.
50 to 250 µM

Give reported IC50 value for Cc1nccn(CC2(O)CCN(C(=O)N3CCNC[C@H]3c3ccccc3)CC23CCCC3)c1=O (stereo partly shown)
5 to 50 µM

Write down IC50 measured for item C[C@H](CC(F)(F)F)C(=O)N1CCC(O)(Cn2ccc3nc(N(C)C)ncc3c2=O)C2(CCCC2)C1 (stereo partly shown)
0.5 to 5 µM

Give reported IC50 value for C[C@H](CC(F)(F)F)C(=O)N1CCC(O)(Cn2ccc3cc(C(F)(F)F)ccc3c2=O)C2(CCCC2)C1 (stereo partly shown)
5 to 50 µM

Output IC50 of C[C@H](CC1CCCCC1)C(=O)N1CCC(O)(Cn2nc3ccccn3c2=O)C(C)(C)C1 (stereo partly shown)
5 to 50 µM

Report IC50, nothing else, for this compound: O=C(NCc1c(F)cccc1F)N1CC[C@@](O)(Cn2cnc(-c3ccccc3)cc2=O)C2(CCCC2)C1
< 0.5 µM

Could you please provide reported IC50 for C[C@H](CC1CCCCC1)C(=O)N1CCC(O)(Cn2cc(-c3ccn[nH]3)ncc2=O)C(C)(C)C1 (stereo partly shown) ? Thanks!
0.5 to 5 µM

----------
Reported IC50 values for the following compounds.
- test.target: Full-length USP19 (Homo sapiens, UniProt O94966)

• Cc1cn(CC2(O)CCN(C(=O)[C@H](C)CC3CCCCC3)CC2(C)C)c(=O)cn1 (stereo partly drawn) [Example 21] = 5 to 50 µM

Query IC50 for C[C@H](CC1CCC1)C(=O)N1CCC(O)(Cn2ccncc2=O)C2(CCCC2)C1 (stereo partly drawn) [Example 4]
0.5 to 5 µM

Name the recorded IC50 of the compound listed here: O=C(N1CC[C@@](O)(Cn2cnc(-c3ccccc3)cc2=O)C2(CCCC2)C1)N1CCNC[C@H]1c1ccccc1 [Example 278]
< 0.5 µM

Give reported IC50 value for O=C(N1CCC(O)(Cn2cnc3cc(F)c(F)cc3c2=O)C2(CCCC2)C1)N1CCNC[C@H]1c1ccccc1 (stereo partly drawn) [Example 170]
< 0.5 µM

----------
Let's go through some IC50 measurements on Full-length USP19 (Homo sapiens, UniProt O94966) together.

Please review the entries below; each comes with its answer.
• CS(C)(=O)=Nc1cn(CC2(O)CCN(C(=O)N3CCNC[C@H]3c3ccccc3)CC23CCCC3)c(=O)cc1-c1ccccc1 (some centres unmarked) = < 500 nM
• CSc1cn(CC2(O)CCN(C(=O)[C@H](C)CC3CCCCC3)CC23CCCC3)c(=O)cc1Cl (some centres unmarked) = < 500 nM
• O=C(N1CC[C@@](O)(Cn2ccc3ncncc3c2=O)C2(CCCC2)C1)N1CCNC[C@H]1c1ccccc1 = < 500 nM

Item C[C@H](CC1CCCCC1)C(=O)N1CCC(O)(Cn2cnc3c(F)cccc3c2=O)C2(CCCC2)C1 (some centres unmarked) : provide IC50
500 to 5000 nM

Recall and state the measured IC50 for O=C(NCc1ccccc1)N1CCC(O)(Cn2cnc(N3CCCC3)cc2=O)C2(CCCC2)C1 (centres unmarked) .
5000 to 50000 nM

----------
Recorded pIC50 by entry
- test.target: Full-length USP19 (Homo sapiens)
- Sequence (O94966 1-1318): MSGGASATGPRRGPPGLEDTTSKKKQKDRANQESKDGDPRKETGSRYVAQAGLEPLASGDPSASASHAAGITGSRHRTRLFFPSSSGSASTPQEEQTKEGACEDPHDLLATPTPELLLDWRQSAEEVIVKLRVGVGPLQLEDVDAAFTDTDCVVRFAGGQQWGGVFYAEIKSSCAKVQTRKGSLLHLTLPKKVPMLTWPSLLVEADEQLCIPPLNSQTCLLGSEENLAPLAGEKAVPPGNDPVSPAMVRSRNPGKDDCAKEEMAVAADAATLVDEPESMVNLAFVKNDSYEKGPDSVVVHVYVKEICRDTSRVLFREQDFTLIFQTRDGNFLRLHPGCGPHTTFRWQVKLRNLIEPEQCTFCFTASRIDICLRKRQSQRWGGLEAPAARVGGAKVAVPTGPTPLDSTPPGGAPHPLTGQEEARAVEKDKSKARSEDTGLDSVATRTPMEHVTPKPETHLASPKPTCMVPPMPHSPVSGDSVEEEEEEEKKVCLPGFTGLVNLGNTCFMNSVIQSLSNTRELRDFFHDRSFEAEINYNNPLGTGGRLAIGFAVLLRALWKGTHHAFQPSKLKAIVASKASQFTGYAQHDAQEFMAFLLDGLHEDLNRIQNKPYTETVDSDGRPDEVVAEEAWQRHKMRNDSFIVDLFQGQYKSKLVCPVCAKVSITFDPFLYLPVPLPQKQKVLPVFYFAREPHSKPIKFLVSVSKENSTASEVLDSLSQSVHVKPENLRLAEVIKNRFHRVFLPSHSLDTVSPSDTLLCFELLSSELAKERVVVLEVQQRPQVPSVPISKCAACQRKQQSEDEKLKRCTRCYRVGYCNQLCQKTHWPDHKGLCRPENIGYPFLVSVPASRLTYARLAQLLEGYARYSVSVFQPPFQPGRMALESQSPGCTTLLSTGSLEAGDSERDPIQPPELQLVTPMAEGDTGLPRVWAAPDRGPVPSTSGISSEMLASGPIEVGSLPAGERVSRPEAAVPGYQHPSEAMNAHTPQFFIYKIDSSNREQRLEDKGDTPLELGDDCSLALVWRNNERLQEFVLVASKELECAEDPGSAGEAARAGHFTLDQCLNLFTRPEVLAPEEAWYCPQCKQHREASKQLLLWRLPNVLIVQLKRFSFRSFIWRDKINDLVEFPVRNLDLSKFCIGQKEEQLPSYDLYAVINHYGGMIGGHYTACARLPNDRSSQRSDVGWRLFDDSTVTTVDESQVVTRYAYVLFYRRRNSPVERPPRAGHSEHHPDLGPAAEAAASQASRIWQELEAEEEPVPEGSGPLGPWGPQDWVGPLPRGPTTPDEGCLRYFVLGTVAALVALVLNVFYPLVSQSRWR
pIC50: −log10 of the molar value.

• C[C@H](CC(F)(F)F)C(=O)N1CCC(O)(Cn2cnc3ccc(F)cc3c2=O)C2(CCCC2)C1 (stereo partly shown) = 4.30 to 5.30
• COc1ncc2c(=O)n(CC3(O)CCN(C(=O)[C@H](C)CC(F)(F)F)CC34CCCC4)ccc2n1 (stereo partly shown) = 4.30 to 5.30
• C[C@H](CC1CCCCC1)C(=O)N1CCC(O)(Cn2cnc3ccsc3c2=O)C2(CCCC2)C1 (stereo partly shown) = 5.30 to 6.30

Please list pIC50 recorded for the compound Cn1cc(-c2cc(=O)n(C[C@]3(O)CCN(C(=O)N4CCOC[C@H]4c4ccc(F)cc4)CC34CCCC4)cn2)cn1
> 6.30

Please report the measured pIC50 for Cn1cc(-c2cc(=O)n(CC3(O)CCN(C(=O)NCc4ccccc4)CC34CCCC4)cn2)cn1 (stereo not shown)
4.30 to 5.30

Find the measured pIC50 of O=C(N1CCC(O)(Cn2cnc3c(cnn3C3CC3)c2=O)C2(CCCC2)C1)N1CCNC[C@H]1c1ccccc1 (stereo partly shown) and report it.
> 6.30

Consider the compound O=C(N1CC(C(F)(F)F)C1)N1CC[C@@](O)(Cn2cnc(-c3ccccc3)cc2=O)C2(CCCC2)C1 . State its measured pIC50.
5.30 to 6.30

Provide one value: measured pIC50 of C[C@H](CC1CCCCC1)C(=O)N1CCC(O)(Cn2cnc3c(cnn3-c3ccccc3)c2=O)C2(CCCC2)C1 (stereo partly shown)
> 6.30

Query pIC50 for COc1cc2ccn(CC3(O)CCN(C(=O)[C@H](C)CC4CCCCC4)CC34CCCC4)c(=O)c2cc1OC (stereo partly shown)
5.30 to 6.30

Consider the compound C[C@H](CC1CCCCC1)C(=O)N1CCC(O)(Cn2cc(-c3ccccc3)ncc2=O)C(C)(C)C1 (stereo partly shown) . State its measured pIC50.
5.30 to 6.30
